Data origin: the Immune Epitope Database (IEDB)

Target: HLA-A*11:01
Experiment Description: IEDB peptide-MHC binding, purified MHC/competitive/radioactivity; bounds were set here for any values at or beyond the usual limits of such assays
Test Context: source organism: Hepatitis B virus
Criterion: IC50 strictly less than 6 nM. Met: met. Not met: not met.

# count of solved cases: 3
# Construct Sequence, Category Label
records = [
    ("CALPFTSAR", "not met"),
    ("IMPARFYPK", "met"),
    ("TTDLEAYFK", "not met"),
]

Ask: Given the entry LSLDVSAAFY , would its reported IC50 be below 6 nM?
Result: not met

Ask: Quick check: IC50 of AVNHYFKTR under 6 nM?
Result: not met

Ask: Field: below-cutoff. Rule: recorded IC50 strictly less than 6 nM. Subject: GSTHVSWPK
Result: met

Ask: # TODO verify IC50 < 6 nM strictly for this sequence: GTDNSVVLSR
Result: not met

Ask: Lab note: IC50 threshold 6 nM. Does this sequence come in strictly under it? KVFVLGGCR
Result: not met

Ask: Consider RLADEGLNR . Does its IC50 lie strictly below 6 nM?
Result: not met
